Data provenance is paper PMC11345766.

System: E. coli (TOP10)
Test: Broth microdilution antimicrobial susceptibility assay
Format: cell-based, Escherichia coli
Conditions: 24 h, MHB
Ends that are not written are not given here.
MIC: recorded values
Provide the reading as a plain figure in µM.

Solved entries:
INSERT INTO assay_data (substance, recorded_endpoint, value_unit, readout_number) VALUES
  ('H-KKKKKLKKILKKLFQFINQLDNQLQDIKKKKK-OH [LP28]', 'MIC', 'µM', 0.4),
  ('KKKKLRRILRRLFQFINQLDNQLQDIKQNK-NH2 [LP38]', 'MIC', 'µM', 0.2),
  ('KKKKLKKILKKLFQFINQLENQLQEIKQNK-NH2 [LP8]', 'MIC', 'µM', 0.8);

Notebook: H-KKKKLKKILKKLFQFINQLDNQLQDFKQNK-OH [LP26] , MIC read as 0.4

Measured MIC, H-KKKKLKKILKKLFQFINQLDNQLQDIKQNK-OH [LP22] : 0.2

----------
Test system: K562
Test: cells
Assay type: cell-based
Settings: Homo sapiens, Leukemia, RPMI-1640 + 10% FCS, 72 hours
RECORDED_ENDPOINT: IC50
Express the reported value numerically, then name its unit.

The reported IC50 of the compound "CC(C)C[C@H](NC(=O)[C@H](Cc1ccccc1)NC(=O)c1cnccn1)B(O)O" was 9.1 nM

----------
Test system: H460
Experiment: cells
Type: cell-based
Conditions: Homo sapiens, NCI-H460; Lung; DMEM + 10% FCS; 72 hours
RECORDED_ENDPOINT: IC50 (nM)
Give a bare numeral; the unit nM is implied.

For record "CC(C)C[C@H](NC(=O)[C@H](Cc1ccccc1)NC(=O)c1cnccn1)B(O)O" the listed IC50 is 26

----------
System: E. coli (TOP10)
Test: Broth microdilution antimicrobial susceptibility assay
Format: cell-based, Escherichia coli
Conditions: TOP10, 24 h
Ends that are not written are not given here.
Consider the cut-off 2 µM. If the recorded MIC is strictly smaller, the label is True; if not, the label is False.

Would you please look over these solved cases?
INSERT INTO assay_data (substance, assigned_class) VALUES
  ('KKKKMKKMMKKMFQFMNQMDNQMQDMKQNK-NH2 [LP30]', 'False'),
  ('KKKKLKKILKKLFNFINNLDNNLNDIKNNK-NH2 [LP37]', 'True'),
  ('Ac-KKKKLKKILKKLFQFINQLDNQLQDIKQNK-NH2 [LP23]', 'False'),
  ('KKKKLKKILKKLIQLINQLDNQLQDIKQNK-NH2 [LP2]', 'False');

Lookup: Hi there! Is MIC for KKKKAKKAAKKAFQFANQADNQAQDAKQNK-NH2 [LP29] below 2 µM, do you know?
Found: False

Lookup: Does this substance meet the criterion MIC < 2 µM? KKKKIKKIIKKIFQFINQIDNQIQDIKQNK-NH2 [LP33]
Found: False

Lookup: Consider the substance KNQNLDDILNQLFQFINQLKNQLQKIKKKK-NH2 [LP43] . Is its MIC strictly less than 2 µM?
Found: False

Lookup: Strictly below 2 µM in MIC? KKKKVKKVVKKVFQFVNQVDNQVQDVKQNK-NH2 [LP31]
Found: False

Lookup: In the record for KKKKLKKILKKLFSFISSLDSSLSDIKSSK-NH2 [LP36] , is MIC less than 2 µM?
Found: True

Lookup: Hi there! Is MIC for KKKKLKKLLKKLFQFLNQLDNQLQDLKQNK-NH2 [LP32] below 2 µM, do you know?
Found: True

Lookup: Threshold test, MIC < 2 µM: KKKKLKKILKKLFQFIQQLDQQLQDIKQQK-NH2 [LP35]
Found: True

Lookup: Decide: MIC of KKKKLKKILKKLFTFITTLDTTLTDIKTTK-NH2 [LP34] strictly below 2 µM?
Found: True
